# Tested on: OVCAR-8 ovarian
# Experimental protocol: NCI tumour cell line growth inhibition, 48 h
So I've got a bunch of compounds here, and I need their TGI values.

The examples below pair each entry with its known result.
1. COc1ccc(C2CC(=O)CC(c3ccc(OC)cc3)C23C(=O)NC(=S)NC3=O)cc1 (stereo unspecified); > 100 µM
2. CCOC(CI)O[C@@H]1C=C[C@H](OC(C)=O)C1 (stereo partly specified); > 100 µM
3. CCCc1c(C(=O)OCC)[nH]c(-c2ccc(-c3[nH]c(C(=O)OCC)c(CCC)c3C(=O)OCC)o2)c1C(=O)OCC; > 100 µM
4. O=C(Nc1ccccc1)NS(=O)(=O)c1ccc(N2N=C3c4ccccc4CC3C2c2ccccn2)cc1 (stereo unspecified); 92.3 µM
5. N#Cc1c(C#N)c(-c2ccco2)n(-c2ccccc2)c1N; 73.1 µM

// each listed compound needs a value for TGI
1. c1ccc2sc(SCN(C3CCCCC3)C3CCCCC3)nc2c1
2. O=C(O)CCCSc1nc2ccccc2s1
3. COc1cc([C@@H]2c3cc4c(cc3[C@@H](NCc3ccccc3)C3COC(=O)[C@@H]32)OCO4)cc(OC)c1O (stereo partly specified)
4. CSCCCNC(=O)c1csc(-c2csc(CCN)n2)n1
5. CC1=CC2=C(C(N)=O)C(=O)OC2(C)C(c2ccccc2)C1 (stereo unspecified)
6. CC1(O)CC23CC1CCC2(C)C12CCCC(C)(C(=O)O1)C2CC3O (stereo unspecified)

> 100 µM
> 100 µM
51.7 µM
> 100 µM
> 100 µM
> 100 µM
